test system: HepG2 liver cancer cell line; assay: MTT cytotoxicity assay on HepG2; format: cell-based; conditions: Homo sapiens, HepG2, 48 h
quantity: IC50 (µg/mL)
Numeric only. Scale: µg/mL

Reference set (3 entries):
COc1ccc2c(c1O)C(=O)c1ccccc1C2=O [2-methyl alizarin, 1-Hydroxy-2-methoxyanthracene-9,10-dione] : 8.88
O=C1c2ccccc2C(=O)c2c1ccc(O)c2O [alizarin] : 99.4
O=C1c2ccccc2C(=O)c2c(O)c(O)cc(O)c21 [purpurin] : 179

Here is another compound to look at.
Task: Please supply the value of reported IC50 for the item COc1cccc2c1C(=O)c1c(O)c3c(c(O)c1C2=O)C[C@@](O)(C(=O)CO)C[C@@H]3O[C@H]1C[C@H](N)[C@H](O)[C@H](C)O1 [Doxorubicin, reference compound]
Output: 2.48

Entry source: paper PMC11983213
